As shown below, each of these compounds has a reported Kd value.
molecular target: PIK3Cγ_h (Homo sapiens (Human))
Sequence (P48736 whole entry): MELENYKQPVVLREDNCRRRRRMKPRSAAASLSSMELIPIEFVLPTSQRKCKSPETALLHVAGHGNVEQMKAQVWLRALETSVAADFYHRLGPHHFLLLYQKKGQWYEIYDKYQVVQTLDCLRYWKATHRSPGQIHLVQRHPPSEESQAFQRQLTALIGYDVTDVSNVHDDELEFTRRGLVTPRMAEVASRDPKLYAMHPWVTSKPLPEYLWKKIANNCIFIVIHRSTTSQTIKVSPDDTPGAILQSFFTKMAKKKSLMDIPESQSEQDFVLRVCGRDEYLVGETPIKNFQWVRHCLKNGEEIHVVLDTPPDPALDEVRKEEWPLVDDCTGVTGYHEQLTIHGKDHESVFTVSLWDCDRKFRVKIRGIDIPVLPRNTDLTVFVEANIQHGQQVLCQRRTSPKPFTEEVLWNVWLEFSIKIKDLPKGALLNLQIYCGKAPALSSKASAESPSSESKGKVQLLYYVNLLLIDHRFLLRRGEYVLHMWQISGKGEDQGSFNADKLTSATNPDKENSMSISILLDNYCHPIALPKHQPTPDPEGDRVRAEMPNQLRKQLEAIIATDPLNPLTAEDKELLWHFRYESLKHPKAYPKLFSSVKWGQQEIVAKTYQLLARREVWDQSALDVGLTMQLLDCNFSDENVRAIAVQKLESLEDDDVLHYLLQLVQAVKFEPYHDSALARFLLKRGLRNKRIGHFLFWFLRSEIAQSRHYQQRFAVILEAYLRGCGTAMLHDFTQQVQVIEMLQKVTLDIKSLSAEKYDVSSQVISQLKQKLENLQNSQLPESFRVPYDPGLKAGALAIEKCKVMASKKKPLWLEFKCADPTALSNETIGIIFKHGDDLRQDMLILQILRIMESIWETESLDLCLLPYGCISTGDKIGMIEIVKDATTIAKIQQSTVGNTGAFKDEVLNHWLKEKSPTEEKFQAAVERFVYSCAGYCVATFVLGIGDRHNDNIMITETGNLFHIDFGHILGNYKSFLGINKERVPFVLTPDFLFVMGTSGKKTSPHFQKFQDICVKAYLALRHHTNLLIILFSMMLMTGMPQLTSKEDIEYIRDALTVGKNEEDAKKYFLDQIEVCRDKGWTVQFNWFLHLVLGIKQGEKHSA

{"Compound": "Cc1nc2c(N)cc(N3CCOCC3)nn2c1Nc1cccc(C(F)(F)F)c1CN1CC2(CCS2(=O)=O)C1", "Kd": "19.6 µM"}

Retrieve Kd on PIK3Cγ_h (Homo sapiens (Human)); query Cc1c(Cc2c(C(O)CN)nc3c(N)cc(N4CCOCC4)nn23)cccc1C(F)(F)F (stereo not shown)
8.13 µM

Retrieve Kd on PIK3Cγ_h (Homo sapiens (Human)); query `Cc1nc2c(-c3ncc[nH]3)cc(N3CCOCC3)nn2c1Nc1cccc(C(F)(F)F)c1C`
6.92 µM

Retrieve Kd on PIK3Cγ_h (Homo sapiens (Human)); query Cc1c(Cc2c(CO)nc3c(N)cc(N4CCOCC4)nn23)cccc1C(F)(F)F [Compound 14c]
> 30.2 µM

Retrieve Kd on PIK3Cγ_h (Homo sapiens (Human)); query Cc1c(Cc2c(CO)nc3c(-c4c[nH]cn4)cc(N4CCOC(C)C4)nn23)cccc1C(F)(F)F (stereo not shown) [Compound 27]
0.479 µM

Retrieve Kd on PIK3Cγ_h (Homo sapiens (Human)); query `Cc1nc2c(C(=O)O)cc(N3CCOCC3)nn2c1Cc1cccc(Cl)c1C`
3.55 µM

Retrieve Kd on PIK3Cγ_h (Homo sapiens (Human)); query Cc1c(Cc2c(CO)nc3c(N)cc(N4CCOCC4)nn23)cccc1C(F)(F)F [Compound 14b]
> 8.13 µM

Retrieve Kd on PIK3Cγ_h (Homo sapiens (Human)); query `Cc1nc2c(N)cc(N3CCOCC3)nn2c1Nc1cccc(C(F)(F)F)c1C1CCN(CCO)CC1`
24 µM

Retrieve Kd on PIK3Cγ_h (Homo sapiens (Human)); query `Cc1nc2c(-c3ccn[nH]3)cc(N3CCOCC3)nn2c1Cc1cccc(C(F)(F)F)c1C`
14.5 µM

---

target: PIK3Cβ_h (Homo sapiens (Human)); test: KINOMEscan enzyme binding assay, PIK3Cβ; conditions: DiscoveRx
Sequence (P42338 whole entry): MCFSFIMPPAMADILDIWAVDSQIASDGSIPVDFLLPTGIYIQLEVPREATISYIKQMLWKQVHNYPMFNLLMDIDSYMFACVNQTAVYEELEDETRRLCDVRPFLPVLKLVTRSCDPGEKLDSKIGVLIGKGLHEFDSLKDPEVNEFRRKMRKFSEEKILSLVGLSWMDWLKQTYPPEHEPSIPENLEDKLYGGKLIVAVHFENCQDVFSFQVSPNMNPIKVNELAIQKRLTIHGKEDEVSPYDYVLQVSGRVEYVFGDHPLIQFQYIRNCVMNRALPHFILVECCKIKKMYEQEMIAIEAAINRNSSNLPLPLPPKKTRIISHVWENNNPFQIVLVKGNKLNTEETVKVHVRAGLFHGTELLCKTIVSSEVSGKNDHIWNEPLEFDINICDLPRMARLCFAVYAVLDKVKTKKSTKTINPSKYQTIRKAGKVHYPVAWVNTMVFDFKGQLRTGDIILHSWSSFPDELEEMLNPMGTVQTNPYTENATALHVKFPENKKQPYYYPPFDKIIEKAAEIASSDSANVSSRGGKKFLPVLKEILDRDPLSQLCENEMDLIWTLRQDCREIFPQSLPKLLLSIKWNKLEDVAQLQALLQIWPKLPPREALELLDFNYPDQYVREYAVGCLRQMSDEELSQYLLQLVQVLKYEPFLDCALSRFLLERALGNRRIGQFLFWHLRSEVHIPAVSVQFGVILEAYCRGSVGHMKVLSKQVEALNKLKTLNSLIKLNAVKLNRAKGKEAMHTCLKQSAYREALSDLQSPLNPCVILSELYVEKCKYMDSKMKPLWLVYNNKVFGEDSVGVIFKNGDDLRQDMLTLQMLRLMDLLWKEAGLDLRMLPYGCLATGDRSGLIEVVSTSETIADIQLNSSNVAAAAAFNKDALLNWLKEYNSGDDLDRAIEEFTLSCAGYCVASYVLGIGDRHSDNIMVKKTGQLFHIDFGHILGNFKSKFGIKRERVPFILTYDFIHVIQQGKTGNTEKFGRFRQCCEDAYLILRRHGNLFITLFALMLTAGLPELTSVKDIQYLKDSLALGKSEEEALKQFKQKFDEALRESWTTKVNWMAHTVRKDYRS
As shown below, each of these compounds has a reported pKd value.
# pKd = -log10(concentration in molar units)

Past entries and their recorded results:
{"Compound": "Cc1nc2c(C(=O)O)cc(N3CCOCC3)nn2c1Cc1cccc(C(F)(F)F)c1C [Compound 9]", "Value type": "pKd", "Experimental value": 8.85}
{"Compound": "Cc1nc2c(N)cc(N3CCOCC3)nn2c1Nc1cccc(C(F)(F)F)c1CO [Compound 51]", "Value type": "pKd", "Experimental value": 8.68}

Give the value of pKd reported for the following: Cc1c(Cc2c(COC(=O)C(N)Cc3ccccc3)nc3c(N)cc(N4CCOCC4)nn23)cccc1C(F)(F)F (stereo not drawn) [Compound 80]
7.36

Give the value of pKd reported for the following: Cc1nc2c(-c3cnc[nH]3)cc(N3CCOCC3)nn2c1Nc1cccc2c1CNCC2 [Compound 42]
9.22

Give the value of pKd reported for the following: Cc1nc2c(N)cc(N3CCOCC3)nn2c1Nc1cccc2c1CCNC2 [Compound 64]
8.10

Give the value of pKd reported for the following: Cc1c(Cc2c(CO)nc3c(C(N)=O)cc(N4CCOCC4)nn23)cccc1C(F)(F)F [Compound 15]
8.15

---

molecular target: PIK3Cα_h (Homo sapiens (Human))
Sequence (P42336 whole entry): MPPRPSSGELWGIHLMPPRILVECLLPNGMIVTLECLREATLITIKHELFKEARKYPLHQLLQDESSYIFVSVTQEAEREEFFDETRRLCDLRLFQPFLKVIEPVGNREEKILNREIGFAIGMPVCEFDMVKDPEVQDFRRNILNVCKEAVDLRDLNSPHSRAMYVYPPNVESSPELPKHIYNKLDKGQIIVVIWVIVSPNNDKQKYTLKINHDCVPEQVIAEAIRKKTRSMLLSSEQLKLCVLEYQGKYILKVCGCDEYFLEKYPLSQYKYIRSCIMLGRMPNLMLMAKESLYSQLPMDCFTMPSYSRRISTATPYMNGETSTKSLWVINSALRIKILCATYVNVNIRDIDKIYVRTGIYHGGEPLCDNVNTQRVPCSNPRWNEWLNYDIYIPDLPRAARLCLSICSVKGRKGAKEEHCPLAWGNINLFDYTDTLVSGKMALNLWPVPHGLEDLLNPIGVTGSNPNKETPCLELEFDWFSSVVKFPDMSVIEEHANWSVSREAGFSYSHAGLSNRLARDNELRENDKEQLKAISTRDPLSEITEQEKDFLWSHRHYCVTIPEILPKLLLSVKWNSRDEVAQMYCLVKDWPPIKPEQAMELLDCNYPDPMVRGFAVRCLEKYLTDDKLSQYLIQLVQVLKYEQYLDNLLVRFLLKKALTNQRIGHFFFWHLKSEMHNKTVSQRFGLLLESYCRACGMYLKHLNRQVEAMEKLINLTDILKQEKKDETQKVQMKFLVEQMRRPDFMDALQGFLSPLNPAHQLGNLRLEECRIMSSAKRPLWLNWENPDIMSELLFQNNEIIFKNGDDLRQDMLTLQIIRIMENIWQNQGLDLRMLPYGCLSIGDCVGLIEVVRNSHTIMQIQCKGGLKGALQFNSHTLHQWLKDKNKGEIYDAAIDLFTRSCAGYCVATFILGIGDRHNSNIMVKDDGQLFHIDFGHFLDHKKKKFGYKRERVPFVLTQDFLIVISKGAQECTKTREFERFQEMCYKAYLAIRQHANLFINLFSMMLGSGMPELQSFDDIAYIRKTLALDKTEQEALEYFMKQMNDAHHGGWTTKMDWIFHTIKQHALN
Value type: pKd
# pKd = -log10(concentration in molar units)

Past entries and their recorded results:
{"Compound": "CCc1c(F)cccc1Cc1c(CO)nc2c(N)cc(N3CCOCC3)nn12", "pKd": 4.98}
{"Compound": "Cc1c(Cc2c(CO)nc3c(-c4ccn[nH]4)cc(N4CCOCC4)nn23)cccc1C(F)(F)F", "pKd": 5.80}

Give the value of pKd reported for the following: `Cc1c(Cc2c(CNCCO)nc3c(-c4ncc[nH]4)cc(N4CCOCC4)nn23)cccc1C(F)(F)F`
6.03

Give the value of pKd reported for the following: CCC(C)C(N)C(=O)OCc1nc2c(N)cc(N3CCOCC3)nn2c1Cc1cccc(C(F)(F)F)c1C (stereo not shown)
4.57

Give the value of pKd reported for the following: `Cc1nc2c(-c3cnc[nH]3)cc(N3CCOCC3)nn2c1Nc1cccc(C(F)(F)F)c1CN1CC(O)C1`
6.18

Give the value of pKd reported for the following: `Cc1nc2c(N)cc(N3CCOCC3)nn2c1Nc1cccc(C(F)(F)F)c1CN1CCN(C)CC1`
5.37

Give the value of pKd reported for the following: `Cc1cccc(Nc2c(C)nc3c(N)cc(N4CCOCC4)nn23)c1C`
5.59

Give the value of pKd reported for the following: `Cc1nc2c(N)cc(N3CCOCC3)nn2c1Nc1cccc2c1CCNC2`
4.68

Give the value of pKd reported for the following: `Cc1c(Cc2c(CCO)nc3c(N)cc(N4CCOCC4)nn23)cccc1C(F)(F)F`
4.68

Give the value of pKd reported for the following: `Cc1nc2c(-c3ncc[nH]3)cc(N3CCOCC3)nn2c1Nc1cccc(C(F)(F)F)c1C`
5.65

Give the value of pKd reported for the following: `Cc1nc2c(C(=O)O)cc(N3CCOCC3)nn2c1Cc1cccc(C(F)(F)F)c1C`
5.87
